- Assay comment: in vitro
- Recorded conditions: human, HepG2-2.2.15 cells
Where no end group is shown, it is not given here.
Readout kind: viability at 144 h, 10 micrograms per ml (%)
Give your result in % as a bare value.

Ask | // query viability at 144 h, 10 micrograms per ml value for entry VPIQKVQDDTKTLIKTIVTRINDISHTQSVSSKQK-OH [Leptin (22-56)]
Reply | 100

----------
- Assay comment: in vitro
- Recorded conditions: human, MRC-5 cells
Where no end group is shown, it is not given here.
Readout kind: viability at 144 h (%)
Just the number please, in %, no unit attached.

Ask | Would you mind telling me what viability at 144 h value was observed for VPIQKVQDDTKTLIKTIVTRINDISHTQSVSSKQK-OH [Leptin (22-56)] ?
Reply | 100

Data origin, for the record: patent US20100210536A1
